tested on: soybean; test: Test C preemergence; assay type: in vivo, Glycine max; conditions: Preemergence, 250 g ai/ha
From the text: […]
Plant response rating (scale of 0 to 100), Soybean reference
measured.attribute: Plant response rating (scale of 0 to 100), Soybean

In [3]: df
Out[3]:
                                   compound  recorded_number
0  CCc1cc(C(=O)NCC(F)(F)F)nn1Cc1cc(C(F)(F)F)nn1C [Compound 108]               98
1  CCc1cc(C(=O)NC2CC2)nn1Cc1ccnc(C(F)(F)F)c1 [Compound 76]              100
2  CCc1cc(C(=O)NOC(C)C)nn1Cc1cccc(OC(F)(F)F)c1 [Compound 70]               75
3  CCCNC(=O)c1cc(CC)n(Cc2nc(C(F)(F)F)nn2C)n1 [Compound 109]               98
4  CCONC(=O)c1cc(CC)n(Cc2ccnc(OC(F)F)c2)n1 [Compound 131]               98
5  CCc1cc(C(=O)NCC(F)(F)F)nn1Cc1nc(C(F)(F)F)nn1C [Compound 107]               95

====

test system: foxtail, giant; assay: Test A postemergence; type: in vivo, Setaria faberii; conditions: postemergence, 125 g ai/ha, about 10 days, visual rating on 0 to 100 scale (0 no effect, 100 complete control)
As shown below, each of these molecules has a reported Foxtail, Giant plant response rating value.
measured.attribute: Foxtail, Giant plant response rating

In [3]: df
Out[3]:
                                         mol  recorded_number
 0  CCc1cc(C(=O)NCC(F)(F)F)nn1Cc1cc(C(F)(F)F)nn1C               90
 1  CCOc1cc(C(=O)NCC(F)(F)F)nn1Cc1ccnc(OC(F)F)c1              100
 2  CCCCNC(=O)c1cc(Br)n(Cc2cccc(C(F)(F)F)c2)n1               10
 3  CCc1cc(C(=O)NC2CC2)nn1Cc1cccc(C(F)(F)F)n1                0
 4  CCCNC(=O)c1cc(COC)n(Cc2ccnc(C(F)(F)F)c2)n1               60
 5  CCc1cc(C(=O)NC2CC2)nn1Cc1ccnc(C(F)(F)F)c1               80
 6  CCONC(=O)c1cc(CC)n(Cc2ccnc(C(F)(F)F)c2)n1               90
 7  CCc1cc(C(=O)NOC(C)C)nn1Cc1ccnc(OC(F)F)c1               90
 8  O=C(NCC(F)(F)F)c1cc(Cl)n(Cc2cccc(C(F)(F)F)c2)n1                0
 9     CCc1cc(C(=O)NC)nn1Cc1ccnc(C(F)(F)F)c1               10
10  CCc1cc(C(=O)NCC(F)(F)F)nn1Cc1cc(C(F)(F)F)no1                0
11  CCOc1cc(C(=O)NOC(C)C)nn1Cc1ccnc(C(F)(F)F)c1              100
12  Cc1cc(C(=O)NCC(F)(F)C(F)(F)F)nn1Cc1cccc(OC(F)(F)F)c1               10
